assay: in vitro; conditions: both, SD, rat, plasma (EDTA)
Bridge positions count the residues as written; N and C are the ends. Square brackets hold non-standard residues; d marks the D form. Peptide text beside a SMILES is read from it. Trp(7-Me) = Cc1cccc2c(C[C@H](N)C(=O)O)c[nH]c12; 2Nal = N[C@@H](Cc1ccc2ccccc2c1)C(=O)O; AEF = NCCOc1ccc(C[C@H](N)C(=O)O)cc1; Cit = NC(=O)NCCC[C@H](N)C(=O)O; Pen = CC(C)(S)[C@H](N)C(=O)O; αMeK = C[C@](N)(CCCCN)C(=O)O; βAla = NCCC(=O)O
Readings of half-life at 20 μM for the listed compounds
assayEndpoint: half-life at 20 μM

[[record]]
compound = "CC(=O)NCCCC[C@H](NC(=O)[C@](C)(CCCCN)NC(=O)[C@H](Cc1ccc2ccccc2c1)NC(=O)[C@H](Cc1ccc(OCCN)cc1)NC(=O)[C@H]1NC(=O)[C@H](CCCNC(N)=O)NC(=O)[C@H](Cc2c[nH]c3c(C)cccc23)NC(=O)[C@H]([C@@H](C)O)NC(=O)[C@H](CC(N)=O)NC(=O)[C@@H](NC(C)=O)C(C)(C)SSC1(C)C)C(=O)NCCC(=O)NCCC(N)=O [compound 268] (Ac-[Pen]NT[Trp(7-Me)][Cit][Pen][AEF][2Nal][αMeK]K(Ac)[βAla][βAla]-NH2; disulfide 1-6)"
assayendpoint = "half-life at 20 μM"
value = "> 24 h"

[[record]]
compound = "CC(=O)NCCCC[C@@H]1NC(=O)[C@H](Cc2c[nH]c3c(C)cccc23)NC(=O)[C@H]([C@@H](C)O)NC(=O)[C@H](CC(N)=O)NC(=O)[C@@H](NC(C)=O)C(C)(C)SSC(C)(C)[C@@H](C(=O)N[C@@H](Cc2ccc(OCCN)cc2)C(=O)N[C@@H](Cc2ccc3ccccc3c2)C(=O)N[C@@](C)(CCCCN)C(=O)N[C@@H](CCCCNC(C)=O)C(=O)N[C@@H](CC(N)=O)C(=O)N(C)[C@@H](CCCNC(=N)N)C(N)=O)NC1=O [compound 246]"
assayendpoint = "half-life at 20 μM"
value = "> 24 h"


====

experiment: in vitro; conditions: both, SD, rat, plasma (EDTA)
Numbered stars: 1 amine (or outer) side, 2 acyl side, 3 side chain; on linkers, the order of the positions; unused ones are H or OH. Bridge positions count the residues as written; N and C are the ends. Square brackets hold non-standard residues; d marks the D form. Peptide text beside a SMILES is read from it. X4 = CC(C)c1cccc2c(C[C@H](N[*:1])C(=O)[*:2])c[nH]c12; 2Nal = N[C@@H](Cc1ccc2ccccc2c1)C(=O)O; AEF = NCCOc1ccc(C[C@H](N)C(=O)O)cc1; Pen = CC(C)(S)[C@H](N)C(=O)O; αMeK = C[C@](N)(CCCCN)C(=O)O
assayEndpoint: half-life at 20 μM (h)

[[record]]
molecule = "CC(=O)NCCCC[C@H](NC(=O)[C@](C)(CC(C)C)NC(=O)[C@H](Cc1ccc2ccccc2c1)NC(=O)[C@H](Cc1ccc(OCCN)cc1)NC(=O)[C@H]1NC(=O)[C@H](CCC(N)=O)NC(=O)[C@H](Cc2c[nH]c3c(C)cccc23)NC(=O)[C@H]([C@@H](C)O)NC(=O)[C@H](CC(N)=O)NC(=O)[C@@H](NC(C)=O)C(C)(C)SSC1(C)C)C(=O)N[C@H](C)C(=O)NCCC(N)=O"
boundtype = "="
value = 1

[[record]]
molecule = "CC(=O)NCCCC[C@@H]1NC(=O)[C@H](Cc2c[nH]c3c(C(C)C)cccc23)NC(=O)[C@H]([C@@H](C)O)NC(=O)[C@H](CC(N)=O)NC(=O)[C@@H](NC(C)=O)C(C)(C)SSC(C)(C)[C@@H](C(=O)N[C@@H](Cc2ccc(OCCN)cc2)C(=O)N[C@@H](Cc2ccc3ccccc3c2)C(=O)N[C@@](C)(CCCCN)C(=O)N[C@@H](CCCCNC(C)=O)C(=O)N[C@@H](CC(N)=O)C(=O)N[C@H](CC(C)C)C(N)=O)NC1=O [compound 286] (Ac-[Pen]NT[X4]K(Ac)[Pen][AEF][2Nal][αMeK]K(Ac)N[dL]-NH2; disulfide 1-6)"
boundtype = ">"
value = 24

[[record]]
molecule = "CC(=O)NCCCC[C@H](NC(=O)[C@](C)(CC(C)C)NC(=O)[C@H](Cc1ccc2ccccc2c1)NC(=O)[C@H](Cc1ccc(OCCN)cc1)NC(=O)[C@H]1NC(=O)[C@](C)(CCCCN)NC(=O)[C@H](Cc2c[nH]c3c(C)cccc23)NC(=O)[C@H]([C@@H](C)O)NC(=O)[C@H](CC(N)=O)NC(=O)[C@@H](NC(C)=O)C(C)(C)SSC1(C)C)C(=O)N[C@@H](CC(N)=O)C(=O)NCCC(N)=O"
boundtype = "="
value = 7

